All figures here come from PubChem BioAssay AID720517.

- TEST_METHOD_NOTES: qHTS for Inhibitors of Cell Surface uPA Generation: FP59 Counterscreen for Cherry-picked Compounds
- CONDITION_LABEL: FP59 anthrax toxin cytotoxicity counterscreen, cells; series mostly up to 115 µM
Results filed as inconclusive are left out. The source made the active and inactive calls. The call rests on the fitted dose curve; in most records, active means well fitted activation curve with a large enough effect; inconclusive means small, poorly fitted or top-dose-only effect; inactive means flat fitted curve, though single readings scatter.
Labels: TRUE for active, FALSE for inactive

{"COMPOUND": "CC1(C)Oc2ccc3ccc(=O)oc3c2[C@@H](O)[C@H]1O", "LABEL": "FALSE"}
{"COMPOUND": "CCOc1cc(/C=N/Nc2cc(C)nc3ccc(C)cc23)ccc1O", "LABEL": "FALSE"}
{"COMPOUND": "Cc1ccc(S(=O)(=O)N2CCC(C)CC2)cc1", "LABEL": "FALSE"}
{"COMPOUND": "CCN1CCN(Cc2ccc(NC(=O)c3cc(NC(=O)c4cncc(-c5cccs5)c4)cc(OC)c3)cc2C(F)(F)F)CC1", "LABEL": "FALSE"}
{"COMPOUND": "COC(=O)CSc1nc(N2CCOCC2)c2c(c1C#N)CCCC2", "LABEL": "FALSE"}
{"COMPOUND": "N/C(=N/OC(=O)c1ccccc1F)c1nonc1N", "LABEL": "FALSE"}
{"COMPOUND": "CC(C)C1Oc2ccccc2N(CC(=O)NC2CCCCC2)C1=O (stereo not drawn)", "LABEL": "TRUE"}
{"COMPOUND": "CC(C)NC(=O)NC(=O)CN1C(=O)NC(Cc2c[nH]c3ccccc23)C1=O (stereo not drawn)", "LABEL": "FALSE"}
{"COMPOUND": "NC(=O)c1cc2c3ccccc3ccn2c1-c1ccccc1", "LABEL": "FALSE"}
{"COMPOUND": "C[C@H](CO)N1C[C@H](C)[C@@H](CN(C)C(=O)Nc2ccccc2)Oc2ccc(NC(=O)Cn3cnnn3)cc2C1=O", "LABEL": "FALSE"}
{"COMPOUND": "COc1cc(F)ccc1S(=O)(=O)n1c(C)nc2ccccc21", "LABEL": "FALSE"}
{"COMPOUND": "C=CCNC(=S)NCC=C", "LABEL": "FALSE"}
{"COMPOUND": "CCCOc1ccc(S(=O)(=O)NNC(=O)c2cc3ccccc3o2)cc1", "LABEL": "FALSE"}
{"COMPOUND": "COc1ccc(-n2ncc3c(=O)n(CC(=O)NC(C)C)cnc32)cc1", "LABEL": "FALSE"}
{"COMPOUND": "Cc1ccc(NC(=O)CC2OC(=O)c3ccccc32)cc1S(=O)(=O)N1CCOCC1 (stereo not drawn)", "LABEL": "FALSE"}
{"COMPOUND": "COc1ccccc1-c1ccc(SCC(=O)NCCc2ccccc2)nn1", "LABEL": "FALSE"}
{"COMPOUND": "CCC(COC)NC(=O)CCc1nnc(Cc2c[nH]c3ccccc23)o1 (stereo not drawn)", "LABEL": "FALSE"}
{"COMPOUND": "O=C(CNS(=O)(=O)c1ccc(F)cc1)Nc1ccccc1", "LABEL": "FALSE"}
{"COMPOUND": "CCN(CC)S(=O)(=O)c1ccc(NC(=S)Nc2ccc(F)cc2)cc1", "LABEL": "FALSE"}
{"COMPOUND": "O=S(=O)(NCC(c1cccnc1)N1CCOCC1)c1ccccc1 (stereo not drawn)", "LABEL": "FALSE"}
{"COMPOUND": "Oc1c(N=NC(=S)Nc2ccccc2F)c2ccccc2n1Cc1ccccc1Cl", "LABEL": "FALSE"}
{"COMPOUND": "Cc1nc(SCC(=O)NCCN2C(=O)CSC2=O)nc(C)c1C", "LABEL": "FALSE"}
{"COMPOUND": "CCOc1ccccc1N(CC(=O)Nc1ccc(OC)cc1)S(=O)(=O)c1ccccc1", "LABEL": "FALSE"}
{"COMPOUND": "Cc1cccc(Nc2ccc(NCc3ccccc3)nn2)c1", "LABEL": "FALSE"}
{"COMPOUND": "COc1ccc(C(=O)N[C@H](C(=O)NCc2cccs2)C(C)C)cc1", "LABEL": "FALSE"}
{"COMPOUND": "O=C(/C=C/c1ccc(O)c(O)c1)O[C@@H]1C[C@](O)(C(=O)O)C[C@@H](O)[C@H]1O", "LABEL": "FALSE"}
{"COMPOUND": "CCN(CC)S(=O)(=O)c1ccc(C(=O)Nc2cccc(C)c2)cc1", "LABEL": "FALSE"}
{"COMPOUND": "CC1(C)CC(=O)C([N+](=O)[O-])=C(NCCCC(=O)O)C1", "LABEL": "FALSE"}
{"COMPOUND": "O=C(CCCC(=O)N(c1cccc(F)c1)C(C(=O)NC1CCCC1)c1ccc(O)cc1)Nc1ccccn1 (stereo not drawn)", "LABEL": "FALSE"}
{"COMPOUND": "Cc1ccc(S(=O)(=O)NNC(=O)c2ccc(F)cc2)cc1", "LABEL": "FALSE"}
{"COMPOUND": "O=C(O)CSc1nnc(COc2ccccc2)n1-c1ccccc1", "LABEL": "FALSE"}
{"COMPOUND": "COc1ccc(C(c2sc3nc(C)nn3c2O)N2CCC(C(N)=O)CC2)cc1OC (stereo not drawn)", "LABEL": "FALSE"}
{"COMPOUND": "Cc1ccc(S(=O)(=O)N2CCN(C(=O)c3n[nH]c(=O)c4ccccc34)CC2)cc1", "LABEL": "FALSE"}
{"COMPOUND": "CS/C(=C\\[N+](=O)[O-])Nc1ccccc1", "LABEL": "FALSE"}
{"COMPOUND": "C/C(=N\\NC(=O)c1ccccc1)c1c(C)[nH]n(-c2ccccc2)c1=O", "LABEL": "FALSE"}
{"COMPOUND": "CCOC(=O)c1ccccc1N=Cc1c(O)c2ccccc2oc1=O", "LABEL": "FALSE"}
{"COMPOUND": "CC1CC(C)CN(CCCNC(=O)CN2C(=O)CSc3ccc(S(=O)(=O)N4CCOCC4)cc32)C1 (stereo not drawn)", "LABEL": "FALSE"}
{"COMPOUND": "Cc1cc(C)c(S(=O)(=O)N2CCCOC2CNC(=O)C(=O)NCc2cccs2)c(C)c1 (stereo not drawn)", "LABEL": "FALSE"}
